The following compounds are shown together with reported EC50 values.
Biological target: ligand-binding domain (LBD) of LXRα (Homo sapiens)
Construct: expressed in transfected cells; host or cells: HEK293
Sequence (Q13133 155-447): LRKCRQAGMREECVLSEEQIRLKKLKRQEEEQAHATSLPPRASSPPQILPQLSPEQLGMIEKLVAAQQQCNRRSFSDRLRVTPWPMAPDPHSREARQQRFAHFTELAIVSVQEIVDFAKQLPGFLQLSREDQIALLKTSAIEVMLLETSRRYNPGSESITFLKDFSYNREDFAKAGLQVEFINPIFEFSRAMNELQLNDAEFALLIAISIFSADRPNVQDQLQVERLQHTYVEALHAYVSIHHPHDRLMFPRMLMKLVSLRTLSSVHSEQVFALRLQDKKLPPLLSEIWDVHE
Assay: LXR Gal4 reporter transient transfection assay (LBD-M2H Gal4α)
Type: cell-based
Conditions: HEK293 cells, LXRα LBD; read-out: LBD-M2H Gal4α (EC50 range)

Consider the worked cases shown below.
Compound: N#Cc1sccc1-c1c(-c2ccccc2)n(S(=O)(=O)c2ccc(Cl)cc2)c2ccccc12
EC50: < 100 nM

Compound: Cn1cnc(S(=O)(=O)n2c(-c3cccs3)c(-c3ccsc3C#N)c3ccccc32)c1
EC50: 100 to 1000 nM

Compound: N#Cc1sccc1-c1c(-c2cccc(C3CC3C(=O)O)c2)n(S(=O)(=O)c2ccc(Cl)cc2)c2ccccc12 (stereo not shown)
EC50: 100 to 1000 nM

Quick one: EC50 of Cc1ccc(S(=O)(=O)n2c(-c3cccc(N4CC(C(=O)O)C4)c3)c(-c3ccsc3C#N)c3cc(F)c(F)cc32)cc1 ?
100 to 1000 nM
